test system: Human papillomavirus type 1a protein E7 (residues 44-93); experiment: small molecules binding HPV E7 44-93 – biochemical, small-molecule microarray, residues 44-93, 635 nm fluorescence, primary screen (AID 1108); conditions: fluorescence 635 nm, higher = more signal;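 further: E7 fragment applied at 1 µg/mL in TBST for 1 h at 4 C; score combines spot fluorescence with its signal to noise ratio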
Reported composite z-score values for the following molecules.
Please give only the number in your answer, with no unit.

{"molecule": "C=C(COC)/C(=C/C[C@@H](OC(C)=O)c1ccccc1OCCO)c1cnc2ccccc2c1", "reported": 1.17}
{"molecule": "COC(=O)[C@@]1(Cc2ccc(OC)cc2)[C@H]2c3cc(C(=O)N4CCCC4)n(Cc4ccc(C(F)(F)F)nc4)c3C[C@H]2CN1C(=O)c1ccccc1", "reported": 0.381}
{"molecule": "COC(=O)[C@@]1(Cc2ccc(OC)cc2)[C@H]2c3cc(C(=O)N4CCCC4)n(Cc4ccc(Cl)c(C(F)(F)F)c4)c3C[C@H]2CN1C(=O)c1ccccc1", "reported": 1.47}
{"molecule": "CCCCCCc1nc(-c2ccc(-c3ccc(Cl)c(Cl)c3)o2)cc2c1[Si](C(C)C)(C(C)C)OC2", "reported": -0.474}
{"molecule": "CC(C)(C)N1CC=CC23O[C@@H]4/C=C\\CCCOC(=O)C4[C@H]2C(=O)N(CCCO)[C@@H]3C1=O (stereo partly drawn)", "reported": -0.751}
{"molecule": "C=CCNC(=O)[C@H]1[C@@H]2C(=O)O[C@@H](c3ccccc3)[C@@H](c3ccccc3)N2[C@@H](c2ccc(OCCO)cc2)[C@]12C(=O)Nc1ccc(C#CC3(O)CCCCCC3)cc12", "reported": 1.24}

# return recorded composite z-score for input "C=CCNC(=O)[C@H]1[C@@H]2C(=O)O[C@@H](c3ccccc3)[C@@H](c3ccccc3)N2[C@@H](c2ccccc2OCCO)[C@]12C(=O)N(C(=O)OCCOC)c1ccc(C#Cc3ccc(OC)cc3)cc12"
1.39

Look up and state reported composite z-score for "CCCC=C(CCC)[C@@H](NC(=O)OCC(C)C)c1ccc(C(=O)OC)cc1"
0.903

Indicate its recorded composite z-score; the molecule in question is "C=CCN1C(=O)[C@]2(O[C@H](CCn3cc([C@H](O)c4ccccc4)nn3)[C@@H]([Si](C)(C)c3ccc(OC)cc3)[C@@H]2C)c2cc(NC(=O)c3ccc(OC)cc3)ccc21"
1.15

Note composite z-score for the molecule shown: "COCC(=C=CC[C@H](O)c1ccccc1OCCO)C[C@H](O)COCc1ccccc1"
1.2

Report measured composite z-score; entry is "C=C(COC)C(=O)CC[C@H](OC(=O)c1cccnc1)c1ccc(OCCO)cc1"
1.27

Supply measured composite z-score of "CCOC(=O)C[C@H]1[C@H](OC(=O)Cc2ccc3c(c2)OCO3)[C@@H](NC(=O)Cc2ccc(OC)cc2)c2cc(OCCCO)ccc2N1C(=O)Cc1ccc(OC)cc1" in your reply.
0.221

Please indicate composite z-score recorded for "COc1ccc(C#Cc2ccc3c(c2)[C@]2(C(=O)N3)[C@H](C(=O)O)[C@H]3C(=O)O[C@H](c4ccccc4)[C@H](c4ccccc4)N3[C@@H]2c2ccccc2OCCO)cc1"
0.263

// Input: "COc1ccc([Si](C)(C)[C@@H]2[C@@H](CC(=O)N3Cc4ccccc4C[C@H]3CO)O[C@]3(C(=O)N(Cc4ccc(N5CCOC5=O)cc4)c4ccccc43)[C@H]2C)cc1" . Output its composite z-score only.
0.225

Just for reference, PubChem BioAssay is where these values come from.
